# Assay Name: Toxicity liver stage against HepG2, at 10uM
# Type: cell-based
# Set-up: test concentration 10 uM, cell line HepG2-A16-CD81EGFP
# Assay Conditions: human, HepG2-A16-CD81EGFP cells; read-out: INHIBITION
Reported values of cytotoxicity at 10 µM for individual entries

CN1CCCC(Cc2cncc(Br)c2)CC1 (stereo not given); -5.95%
COc1ccc(C(O)CNC(=O)NCc2csc(C)n2)cc1 (stereo not given); -6.12%
Cc1sc(NS(=O)(=O)c2ccccc2)nc1C(=O)NC1CC1; 5.73%
C=c1ncsc1=C1NN=C(C2CCCN2C(=O)CCn2ccc(C)n2)O1 (stereo not given); 1.66%
CC(=O)Nc1ccccc1Sc1nc(Br)nn1C; -1.05%

Exercise: What value of measured cytotoxicity at 10 µM is listed for Cc1ccccc1C(NC(=O)CCCS(C)(=O)=O)C(C)(C)C (stereo not given) ?
Solution: -9.4%

Exercise: What value of measured cytotoxicity at 10 µM is listed for `N#Cc1ccc(OC[C@]23COC[C@H]2CN(Cc2ccoc2)C3)nc1` ?
Solution: -0.762%

Exercise: What value of measured cytotoxicity at 10 µM is listed for `Cc1nc(CN2CCCN(C(=O)c3sccc3C#N)CC2)cs1` ?
Solution: -7.98%

Exercise: What value of measured cytotoxicity at 10 µM is listed for `CC1=N[C@@]2(CC[C@@H]3CN(CC4CC4)C[C@@H]32)C(=O)N1CC(C)C` ?
Solution: -84%

Exercise: What value of measured cytotoxicity at 10 µM is listed for `COc1ccc(C(=O)Nc2cccc(C(N)=O)c2)c(OC)n1` ?
Solution: -9.2%

Exercise: What value of measured cytotoxicity at 10 µM is listed for `O=C1CCCc2[nH]c(=O)c(C(=O)N3CCc4ccccc4C3)cc21` ?
Solution: 14.6%

Exercise: What value of measured cytotoxicity at 10 µM is listed for CC(NC(=O)c1cccs1)C(=O)NCc1cccnc1N1CCCCC1 (stereo not given) ?
Solution: -8.57%

Exercise: What value of measured cytotoxicity at 10 µM is listed for `Cc1cc(CNC(=O)NCc2cccs2)no1` ?
Solution: -1.87%

Exercise: What value of measured cytotoxicity at 10 µM is listed for CCc1ccc(C(COC)NC(=O)c2ccc(F)c(NC(C)=O)c2)o1 (stereo not given) ?
Solution: -11.1%

Exercise: What value of measured cytotoxicity at 10 µM is listed for `COc1c(CNCc2ccc(CN3CCOCC3)cc2)c(C)nn1C` ?
Solution: -11.8%

Exercise: What value of measured cytotoxicity at 10 µM is listed for `CCc1nc(CN2CCCN(C(=O)c3ccnc(C)n3)CC2)cs1` ?
Solution: -13.4%
